# credit: patent US11542297B2

Molecular target: rat brain cortical membranes ([35S]-TBPS binding, GABA receptor complex)
Assay: Steroid inhibition of [35S]-TBPS binding
Conditions: in the presence of 5 μM GABA, read-out: 35S-TBPS Radioligand Displacement (IC50)
pIC50: −log10 of the molar value.
Kindly supply the reported pIC50 values for the records listed here.

QUERY: May I ask what pIC50 has been recorded for C[C@H](C(=O)[C@H]1CC[C@H]2[C@@H]3CC[C@@H]4C[C@](C)(O)CC[C@]4(C)[C@H]3CC[C@]12C)n1nccn1 [Compound 56] ?
RESULT: 7.00 to 7.30

QUERY: Now the same for C[C@@H](C(=O)[C@H]1CC[C@H]2[C@@H]3CC[C@@H]4C[C@](C)(O)CC[C@]4(C)[C@H]3CC[C@]12C)n1nc2ccccc2n1 [Compound 61]
RESULT: 6.30 to 7.00

QUERY: Now give it for CSc1ccc2nnn(CC(=O)[C@H]3CC[C@H]4[C@@H]5CC[C@H]6C[C@](C)(O)CC[C@]6(C)[C@H]5CC[C@]34C)c2c1 [Compound 248] too.
RESULT: > 8.00
